System: PRKX
Details: concentration: 1 μM, replicates: in singlicate; n = 1
parameter-measured: %Inh (%)
// units = %; emit number, no label

[
  {
    "compound": "Nc1nccc(-c2c(-c3ccc(F)cc3)ncn2C2CCN(CC(F)(F)F)CC2)n1 [SB-236560]",
    "parameter-measured": "%Inh",
    "observed-value": 0
  }
]

Form field: %Inh recorded for Cl.Nc1ncnc2occ(-c3ccc(NC(=O)Nc4cc(C(F)(F)F)ccc4F)cc3)c12 [SB-707548] with PRKX (enter value)
9

Under PRKX: %Inh value of `CN1c2ccc(NCc3ccc(F)cc3)cc2-c2c(cnn2C)S1(=O)=O` ?
0

Requested read-out %Inh, target or system PRKX, entry N#Cc1ccc(-c2cc(-c3c[nH]nc3-c3ccccn3)ccn2)cc1 [GW693028]
2

Give the reported %Inh for `N#Cc1c(N2CCOCC2)sc(-c2ccn[nH]2)c1-c1ccc(Cl)cc1` (system: PRKX).
12

Entry `O=C1Cc2cc(Nc3nc(NCc4cccc(S(=O)(=O)C(F)(F)F)c4)ncc3C(F)(F)F)ccc2N1` , system PRKX: what %Inh was measured?
0

----------
System: PAK7
Conditions: concentration: 1 μM, replicates: in singlicate; n = 1
// %Inh lookup, one value per entry

Look over these answered cases.
[
  {
    "compound": "COc1cc2ncn(-c3cc(OCc4sccc4Cl)c(C(N)=O)s3)c2cc1OC [GSK448459]",
    "%Inh": "0%"
  },
  {
    "compound": "CC(C)(C)n1cnc2c(N)ncnc21 [SKF-97359]",
    "%Inh": "6%"
  },
  {
    "compound": "CN(C1=C(c2ccccc2)C(=O)NC1=O)c1ccccc1 [SB-334860]",
    "%Inh": "18%"
  },
  {
    "compound": "Nc1nccc(-c2c(-c3ccc(F)cc3)ncn2C2CCN(CC(F)(F)F)CC2)n1 [SB-236560]",
    "%Inh": "0%"
  },
  {
    "compound": "CC(C)Oc1ccc2c(-c3ccnc(Nc4ccc(N5CCN(C)CC5)cc4)n3)cnn2n1 [GW696155]",
    "%Inh": "44%"
  },
  {
    "compound": "Cc1ccc(NC(=O)c2ccnc(N3CCN(C)CC3)c2)cc1-c1ccc(C(=O)NCC2CC2)cc1 [GW775604]",
    "%Inh": "0%"
  },
  {
    "compound": "N#Cc1c(N2CCOCC2)sc(-c2ccn[nH]2)c1-c1ccc(Cl)cc1",
    "%Inh": "0%"
  },
  {
    "compound": "O=C(Nc1n[nH]c2cc(-c3cccc(F)c3)ccc12)C1CC1 [SB-735464]",
    "%Inh": "0%"
  }
]

Now take the following compound into account.
Which %Inh is listed for O=c1cc(N2CCOCC2)nc2n(Cc3cccc(C(F)(F)F)c3)ccn12 [GSK2297543] ?
0%

----------
Tested on: CSF1R-autoinhibited
Details: concentration: 1 μM, replicates: in singlicate; n = 1
%Inh values for the compounds below.
Please reply with the bare figure in % and do not write the unit itself.

[
  {
    "compound": "Cl.Nc1ncnc2occ(-c3ccc(NC(=O)Nc4cc(C(F)(F)F)ccc4F)cc3)c12",
    "u": "%",
    "observed-value": 90.7
  }
]

Given the compound COc1cc(Nc2nccc(N3CCC(NC(=O)c4cccc(NC(C)=O)c4)C3)n2)cc(OC)c1OC (stereo not drawn) , what is its reported %Inh?
0

%Inh lookup needed for `O=C1NC(=O)C(N2CCc3ccccc32)=C1c1cccc(Cl)c1` , thanks.
16

%Inh lookup needed for `CN1c2ccc(CNc3ccc(F)cc3)cc2-c2c(cnn2C)S1(=O)=O` , thanks.
1

Query (compound): `N#Cc1c(N2CCOCC2)sc(-c2ccn[nH]2)c1-c1ccc(Cl)cc1` ; field requested: %Inh
8

Can you share its %Inh? I mean this compound: `O=C(NCCNc1ccnc(Nc2ccc(F)cc2)n1)Nc1ccccc1F`
0

Tell me the measured %Inh of `CNc1ncnc2[nH]ncc12` , please.
0

Tell me the measured %Inh of `N#Cc1ccc(-c2cc(-c3c[nH]nc3-c3ccccn3)ccn2)cc1` , please.
0

Which %Inh value is on record for `C[C@@H](Oc1cc(-n2cnc3ccc(NC(=O)NC(C)(C)C)cc32)sc1C(N)=O)c1ccccc1Cl` ?
15

----------
Test system: TGFBR1
parameter-measured: pKd
Value format note: pKd is -log10 of concentration (mol/L); just state the number.

What value of pKd on TGFBR1 does N#Cc1ccc(-c2cc(-c3c[nH]nc3-c3ccccn3)ccn2)cc1 [GW693028] have?
6.82

----------
Tested on: RIOK2
parameter-measured: pKd
Hey, just a heads up that pKd is the negative log base 10 of the concentration in molar.

For RIOK2, provide pKd of `COc1ccc(COc2cc(-n3cnc4ccccc43)sc2C(N)=O)cc1` please.
7.12

----------
System: FYN
Details: concentration: 1 μM, replicates: in singlicate; n = 1
parameter-measured: %Inh (%)
Record the value in %, omitting the unit from your answer.

These recorded examples may help you get a feel for the data.
[
  {
    "record-smiles": "NS(=O)(=O)CCc1cccc(Nc2nccc(-c3c(-c4cccc(NC(=O)c5c(F)cccc5F)c4)nn4ccccc34)n2)c1",
    "observed-value": 96.7
  },
  {
    "record-smiles": "C[C@@H](Oc1cc(-n2cnc3ccc(NC(=O)NC(C)(C)C)cc32)sc1C(N)=O)c1ccccc1Cl",
    "observed-value": 6
  },
  {
    "record-smiles": "Cl.Oc1cccc(Nc2ccnc3cc(-c4ccncc4)ccc23)c1",
    "observed-value": 95.7
  }
]

Dear colleague, I am looking for the recorded %Inh of the following compound: `CNc1ncnc2[nH]ncc12`
0

# query: %Inh of entry `O=C1Cc2cc(Nc3nc(NCc4cccc(S(=O)(=O)C(F)(F)F)c4)ncc3C(F)(F)F)ccc2N1`
0

----------
Tested on: PCTK2
Construct: gene CDK17
Conditions: concentration: 1 μM, replicates: in singlicate; n = 1
Below: a set of entries, each annotated with reported %Inh.
Number only, in %; omit the unit.

# count of solved cases: 10
[
  {
    "molecule": "Fc1ccc(-c2ncn(CCCN3CCOCC3)c2-c2cccnc2)cc1",
    "%Inh (%)": 0
  },
  {
    "molecule": "Fc1ccc(-c2nn3c(OCC(F)(F)F)cccc3c2-c2ccncc2)cc1",
    "%Inh (%)": 15
  },
  {
    "molecule": "Cc1c2ccc(N(C)c3ccnc(Nc4cccc(S(N)(=O)=O)c4)n3)cc2nn1Cc1ccccc1.Cl.Cl",
    "%Inh (%)": 0
  },
  {
    "molecule": "O=C(Nc1n[nH]c2cc(-c3cccc(F)c3)ccc12)C1CC1",
    "%Inh (%)": 6
  },
  {
    "molecule": "Cc1nnc(-c2ccc(C)c(-c3ccc(C(=O)Nc4ccc(NS(C)(=O)=O)cc4)cc3)c2)o1",
    "%Inh (%)": 7
  },
  {
    "molecule": "Cc1cccc(-c2nc(-c3ccc(S(C)(=O)=O)cc3)sc2-c2ccncc2)c1",
    "%Inh (%)": 0
  },
  {
    "molecule": "CC(C)Oc1ccc2c(-c3ccnc(Nc4ccc(N5CCN(C)CC5)cc4)n3)cnn2n1",
    "%Inh (%)": 93.5
  },
  {
    "molecule": "O=C(c1ccc(-c2cc(-c3c[nH]nc3-c3ccccn3)ccn2)cc1)N1CCOCC1",
    "%Inh (%)": 0
  },
  {
    "molecule": "COCCNC(=O)c1ccc(-c2cc(C(=O)NC3CC3)cc(F)c2C)cc1",
    "%Inh (%)": 0
  },
  {
    "molecule": "Cc1nnc(-c2ccc3ncc(-c4ccc(S(C)=O)cc4)n3c2)o1 (stereo not drawn)",
    "%Inh (%)": 0
  }
]

Name the reported %Inh value associated with the molecule `NS(=O)(=O)CCc1cccc(Nc2nccc(-c3c(-c4cccc(NC(=O)c5c(F)cccc5F)c4)nn4ccccc34)n2)c1`
0

Which %Inh reading was recorded for the molecule COc1ccc(Nc2nccc(N3CCC(NC(=O)Nc4cc(C)ccc4C)C3)n2)cc1 (stereo not drawn) ?
9

Form field: reported %Inh of `COc1ccc(COc2cc(-n3cnc4ccccc43)sc2C(N)=O)cc1`
0

----------
Documented %Inh across a set of compounds
System: WEE1
Details: concentration: 1 μM, replicates: in singlicate; n = 1
# value in %; strip the unit string

[
  {
    "compound": "Cc1cccc(-c2nc(-c3ccc(S(C)(=O)=O)cc3)sc2-c2ccncc2)c1",
    "measured-target": "WEE1",
    "%Inh (%)": 0
  },
  {
    "compound": "O=C(NCCNc1ccnc(Nc2ccc(F)cc2)n1)Nc1ccccc1F",
    "measured-target": "WEE1",
    "%Inh (%)": 13
  },
  {
    "compound": "O=C1NC(=O)C(N2CCc3ccccc32)=C1c1cccc(Cl)c1",
    "measured-target": "WEE1",
    "%Inh (%)": 0
  },
  {
    "compound": "Cl.Nc1ncnc2occ(-c3ccc(NC(=O)Nc4cc(C(F)(F)F)ccc4F)cc3)c12",
    "measured-target": "WEE1",
    "%Inh (%)": 10
  },
  {
    "compound": "O=C(Nc1n[nH]c2cc(-c3cccc(F)c3)ccc12)C1CC1",
    "measured-target": "WEE1",
    "%Inh (%)": 0
  }
]

If you can, please state the reported %Inh value of `CCn1cnc2c(N)ncnc21` .
2

Record request: %Inh value, item Cc1nnc(-c2ccc3ncc(-c4ccc(S(C)=O)cc4)n3c2)o1 (centres unmarked)
0

The measured values listed here are drawn from paper PMC5540273.
